System: MCF7 breast
Assay: NCI-60 one-dose screen, 48 h (100 = growth as untreated, 0 = no growth, -100 = all killed)
Conditions: 10 µM unless noted
The panel holds about 83,000 compounds, 20% with a hit somewhere; the sample as a whole holds those more often.
Reported growth is given for each of the following molecules.
Numeric answer only, unit % assumed.

# count of solved cases: 5
smiles: Cc1ccc2nc(Cl)cc(=O)n2c1
growth / %: 107
--
smiles: COc1ccc(/C=C\c2cc(OC)c(OC)c(OC)c2)cc1OC(=O)c1cccc(Cn2cc(CCOC(=O)c3cccc(Cn4nnc5c4C(=O)c4ccccc4C5=O)c3)nn2)c1
growth / %: 8.36
--
smiles: COc1ccc(-c2ccc(-c3ccc(-c4ccc(C(=N)N)cc4)s3)s2)cc1OC
growth / %: -19.8
--
smiles: C1=Cc2ccccc2N(c2nnc(-c3ccccc3)o2)c2ccccc21
growth / %: 87.6
--
smiles: COc1ccc(-c2nc(SCCC(C)C)nc(Nc3ccc(F)c(Cl)c3)c2C#N)cc1
growth / %: 69.1

// query Looking for the measured growth of COc1ccc(/C=C2\Oc3cc(OCCCN4CCCC4)ccc3C2=O)c(OC)c1 , can you help?
// result 44.4

// query Next molecule: Clc1cc(Cl)cc(-c2ccc(-c3ccc(/C=N/NC4=NCCN4)cc3)s2)c1
// result 16

// query Next molecule: CC(C)(C)n1cc(-c2ccnc(NCCCNS(=O)(=O)c3ccccc3)c2)c(-c2cccc(O)c2)n1
// result 25.1

// query Next molecule: CC(C)CSc1nc(NN)c(C#N)c(-c2ccc(F)cc2)n1
// result 73.8

---

System: MDA-MB-231 breast
Assay: NCI-60 one-dose screen, 48 h
Conditions: 10 µM unless noted
Compounds without any hit were thinned out: in the full panel of roughly 83,000, 20% have a hit. The source made the active and inactive calls. Rule for the calls: active = growth percent below 10; inactive = the rest.
Outcomes you can answer with include only these: class 1 = active, class 0 = inactive

For orientation, consider the following solved cases.
compound: O=S1(=O)CCC(N(/N=C/c2ccco2)c2ccccc2)C1 (stereo not given)
class.name: class 0
//
compound: O=C(Nc1cccc(-n2cc(-c3ccncc3)c(-c3ccc(Cl)c(O)c3)n2)c1)Nc1ccc(Cl)c(Cl)c1
class.name: class 1
//
compound: CCCN=C1NC(=O)/C(=C/c2nc(-c3ccc(OC)cc3)n3ccccc23)S1
class.name: class 0

// query What did the test return for C=C1CCC2C(C)(CO)C(O)CCC2(C)C1C/C=C1/C(=O)OCC1O/C=C/c1ccccc1 (stereo not given) ?
// result class 0

// query Next compound: Cc1nc2ncccc2nc1Nc1ccc(S(=O)(=O)Nc2cncs2)cc1
// result class 0

// query Next compound: CC(C)(C)n1cc(-c2ccnc(NCCNS(=O)(=O)c3ccc(F)cc3)c2)c(-c2cccc(O)c2)n1
// result class 0

// query Next compound: CC(C)(C)n1cc(-c2ccnc(NCCCNS(=O)(=O)c3cccc(F)c3)c2)c(-c2cccc(O)c2)n1
// result class 0

// query Next compound: COc1ccc(-c2nc(-c3nc4cc(C)c(C)cc4[nH]3)cc3c2[nH]c2ccccc23)cc1
// result class 1

// query Next compound: COc1ccc(S(=O)(=O)NCCCNc2nccc(-c3c(-c4cccc([N+](=O)[O-])c4)nc4sccn34)n2)cc1
// result class 0

// query Next compound: COc1ccc2c(c1)NC1=C(C(=O)OC1)C2c1cc(OC)c2c(c1)OCO2 (stereo not given)
// result class 0

// query Next compound: N/C(=N\C(N)=N\c1nc2ccccc2s1)c1cccc(Br)c1
// result class 0

// query Next compound: CN(C[C@H]1Cc2c(cccc2N2CCN(Cc3ccccn3)CC2)CN1)[C@H]1CCCc2cccnc21
// result class 0

// query Next compound: CCCCCCCCCCCCCCCCNC(=O)OC(C)C
// result class 0

// query Next compound: Brc1ccc(-c2[nH]ncc2-c2c[nH]c3ccccc23)cc1
// result class 0

// query Next compound: CC(C)(C)NCCC(O)c1cc2c(Cl)cc(Cl)cc2c2cc(C(F)(F)F)ccc12 (stereo not given)
// result class 1

// query Next compound: COc1ccc2c(c1)cn1c3ccc(OC)cc3[nH]c(=O)c21
// result class 1

meta.source: PubChem BioAssay (NCI)
